test: Log P by HPLC on reversed phase columns (EEC directive 79/831 Annex V.A8); format: physicochemical; details: method [a]: LC-UV, acidic range, 0.1% formic acid in water and acetonitrile; compounds of formula (I)
Reported Metric: LogP

[[record]]
compound = "OC(Cn1cncn1)c1ccc(Oc2ccc(Cl)nc2)nc1Cl (stereo not shown)"
reported_result = "1.79^[a]"

[[record]]
compound = "CC(O)(Cn1cncn1)c1ccc(Oc2ccc(Cl)nc2)nc1Cl (stereo not shown)"
reported_result = "2.04^[a]"

[[record]]
compound = "OC(Cn1cncn1)c1cnc(Oc2ccc(C(F)(F)F)nc2)cc1C(F)(F)F (stereo not shown)"
reported_result = "2.35^[a]"

[[record]]
compound = "OC(Cn1cncn1)c1ccc(Oc2ccc(Cl)nc2)nc1C(F)(F)F (stereo not shown)"
reported_result = "2.07^[a]"


Values from patent US20200017467A1
